Molecular target: T1, catalytic domain of MMP-14 (cdMMP-14) (human, UniProt P50281 114-287, limits assumed, biotinylated (Sulfo-NHS-LC-Biotin) where immobilised via streptavidin)
T1 construct: also called matrix metalloproteinase-14 catalytic domain; wild-type MMP-14
Test: ELISA, Fab titrated on immobilised MMP-14 catalytic domain, anti-Fab-HRP
RECORDED_ENDPOINT: EC50 (nM)
Numeric answer only, unit nM assumed.

{"columns": ["BINDER", "OBSERVED"],
 "data": [
  ["Fab 32C2 (Fab, V domains shown, not shown: His tag at the C-terminus of the heavy chain) VH: EVQLVESGGGLVQPGGSLRLSCAASGFNLYYYSMHWVRQAPGKGLEWVAYISPYSSSTYYADSVKGRFTISADTSKNTAYLQMNSLRAEDTAVYYCARSQHAKKSTIIRMLEHQSRSGMQYVMDYWGQGTLVTVSS VL: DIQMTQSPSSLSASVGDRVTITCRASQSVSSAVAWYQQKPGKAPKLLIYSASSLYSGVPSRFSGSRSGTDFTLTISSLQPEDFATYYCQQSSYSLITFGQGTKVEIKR", 150],
  ["Fab 33D4 (Fab, V domains shown, also called R2C15; not shown: His tag at the C-terminus of the heavy chain) VH: EVQLVESGGGLVQPGGSLRLSCAASGFNIYYSSMHWVRQAPGKGLEWVASISPYSGSTYYADSVKGRFTISADTSKNTAYLQMNSLRAEDTAVYYCARSVHMKLSNKILSGWSWNNSFYAMDYWGQGTLVTVSS VL: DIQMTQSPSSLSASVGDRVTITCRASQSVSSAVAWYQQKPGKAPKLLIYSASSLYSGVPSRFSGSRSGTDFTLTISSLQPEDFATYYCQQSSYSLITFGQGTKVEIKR", 460],
  ["Fab 2B5 (Fab, V domains shown, not shown: His tag at the C-terminus of the heavy chain) VH: EVQLVESGGGLVQPGGSLRLSCAASGFNLSYSSMHWVRQAPGKGLEWVASIYPYSGYTYYADSVKGRFTISADTSKNTAYLQMNSLRAEDTAVYYCARIGVNAWAVKMSQRMLATRGSGWYVMDYWGQGTLVTVSS VL: DIQMTQSPSSLSASVGDRVTITCRASQSVSSAVAWYQQKPGKAPKLLIYSASSLYSGVPSRFSGSRSGTDFTLTISSLQPEDFATYYCQQSSSYPYSPITFGQGTKVEIKR", 24]
]}

The value of EC50 measured for the binder Fab 3E2 (Fab, V domains shown, not shown: His tag at the C-terminus of the heavy chain) VH: EVQLVESGGGLVQPGGSLRLSCAASGFNIYYYSIHWVRQAPGKGLEWVASIYPYSSYTYYADSVKGRFTISADTSKNTAYLQMNSLRAEDTAVYYCARGIKGLVFTGSQMKMLRRGNYNWYVMDYWGQGTLVTVSS VL: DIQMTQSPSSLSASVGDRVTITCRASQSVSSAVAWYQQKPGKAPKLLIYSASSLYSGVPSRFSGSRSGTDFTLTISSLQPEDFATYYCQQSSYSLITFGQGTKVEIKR turned out to be 47
